target-system: 5-hydroxytryptamine receptor 4 (Homo sapiens, UniProt Q13639)
Sequence (Q13639 whole entry): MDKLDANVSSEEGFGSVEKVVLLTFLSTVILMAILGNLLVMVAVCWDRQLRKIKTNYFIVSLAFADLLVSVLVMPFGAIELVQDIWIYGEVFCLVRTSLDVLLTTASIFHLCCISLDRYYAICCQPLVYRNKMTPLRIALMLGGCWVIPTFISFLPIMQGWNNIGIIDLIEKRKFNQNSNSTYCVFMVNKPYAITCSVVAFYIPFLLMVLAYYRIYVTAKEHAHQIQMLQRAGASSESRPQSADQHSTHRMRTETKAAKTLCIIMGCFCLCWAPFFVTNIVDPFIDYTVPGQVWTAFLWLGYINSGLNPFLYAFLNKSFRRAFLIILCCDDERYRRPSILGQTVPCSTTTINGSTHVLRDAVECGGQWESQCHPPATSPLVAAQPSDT
assay-summary: Percent cAMP production in C6 glial cells expressing human 5-hydroxytryptamine 4 receptor
Format: functional, cell-based
Could you please report measured cAMP for the items listed next?
State just the number; it will be interpreted in %.

Item "COc1cc(N)c(Cl)cc1C(=O)OCCN1CCC(C(=O)NCCCCCNC(=O)C2CCN(CCOC(=O)c3cc(Cl)c(N)cc3OC)CC2)CC1" with 5-hydroxytryptamine receptor 4 (Homo sapiens, UniProt Q13639) - cAMP?
5

Enter reported cAMP observed with 5-hydroxytryptamine receptor 4 (Homo sapiens, UniProt Q13639) for "COc1cc(N)c(Cl)cc1C(=O)OCCN1CCC(CCNC(=O)CCCCCC(=O)NCCC2CCN(CCOC(=O)c3cc(Cl)c(N)cc3OC)CC2)CC1"
31

5-hydroxytryptamine receptor 4 (Homo sapiens, UniProt Q13639) / cAMP / "COc1cc(N)c(Cl)cc1C(=O)OCCN1CCC(NC(=O)CCCCCCCCCCNc2nc(NCCCCCCCCCCC(=O)NC3CCN(CCOC(=O)c4cc(Cl)c(N)cc4OC)CC3)nc(NCc3ccccc3)n2)CC1" : value?
12

Find the measured cAMP: item "COc1cc(N)c(Cl)cc1C(=O)OCCN1CCC(C(=O)NCc2cccc(CNC(=O)C3CCN(CCOC(=O)c4cc(Cl)c(N)cc4OC)CC3)c2)CC1" , target or system 5-hydroxytryptamine receptor 4 (Homo sapiens, UniProt Q13639).
16

Give recorded cAMP with 5-hydroxytryptamine receptor 4 (Homo sapiens, UniProt Q13639) for the following compound: "COc1cc(N)c(Cl)cc1C(=O)OCCN1CCC(CNC(=O)CCCCCCCCCCC(=O)NCC2CCN(CCOC(=O)c3cc(Cl)c(N)cc3OC)CC2)CC1"
21

Please provide the recorded cAMP for "COc1cc(N)c(Cl)cc1C(=O)OCCN1CCC(NC(=O)CCCCCCCCCCNC(=O)C2CCN(CCOC(=O)c3cc(Cl)c(N)cc3OC)CC2)CC1" , tested on 5-hydroxytryptamine receptor 4 (Homo sapiens, UniProt Q13639).
5

Query cAMP on 5-hydroxytryptamine receptor 4 (Homo sapiens, UniProt Q13639) for "COc1cc(N)c(Cl)cc1C(=O)OCCN1CCC(C(=O)NCCCCCCCCCCNC(=O)C2CCN(CCOC(=O)c3cc(Cl)c(N)cc3OC)CC2)CC1"
8

Identify the measured cAMP of "COc1cc(N)c(Cl)cc1C(=O)OCCN1CCC(C(=O)NCCNC(=O)C2CCN(CCOC(=O)c3cc(Cl)c(N)cc3OC)CC2)CC1" for 5-hydroxytryptamine receptor 4 (Homo sapiens, UniProt Q13639).
3

Can you look up cAMP on 5-hydroxytryptamine receptor 4 (Homo sapiens, UniProt Q13639) for "COc1cc(N)c(Cl)cc1C(=O)OCCN1CCC(NC(=O)CCNC(=O)C2CCN(CCOC(=O)c3cc(Cl)c(N)cc3OC)CC2)CC1" ?
10

Lookup: cAMP / 5-hydroxytryptamine receptor 4 (Homo sapiens, UniProt Q13639) / "COc1cc(N)c(Cl)cc1C(=O)OCCN1CCC(NC(=O)CCCCCCCCCCC(=O)NC2CCN(Cc3ccccc3)CC2)CC1"
35

// fetch 5-hydroxytryptamine receptor 4 (Homo sapiens, UniProt Q13639) cAMP for "COc1cc(N)c(Cl)cc1C(=O)OCCN1CCC(NC(=O)CCC(=O)NC2CCN(CCOC(=O)c3cc(Cl)c(N)cc3OC)CC2)CC1"
47

Write down the reported cAMP of "COc1cc(N)c(Cl)cc1C(=O)OCCN1CCC(CCNC(=O)CCC(=O)NCCC2CCN(CCOC(=O)c3cc(Cl)c(N)cc3OC)CC2)CC1" , test system: 5-hydroxytryptamine receptor 4 (Homo sapiens, UniProt Q13639).
15

Provide value of cAMP for this record tested with 5-hydroxytryptamine receptor 4 (Homo sapiens, UniProt Q13639): "COc1cc(N)c(Cl)cc1C(=O)OCCN1CCC(NC(=O)CCCCCCCCCCN)CC1"
50

Checklist item: cAMP tested on 5-hydroxytryptamine receptor 4 (Homo sapiens, UniProt Q13639), entry "COc1cc(N)c(Cl)cc1C(=O)OCCN1CCC(NC(=O)CCCCCCCCCCN(CCCCCCCCCCC(=O)NC2CCN(CCOC(=O)c3cc(Cl)c(N)cc3OC)CC2)CC(=O)NCC2CCNCC2)CC1" , value?
10

Record lookup: for 5-hydroxytryptamine receptor 4 (Homo sapiens, UniProt Q13639), what cAMP belongs to "COc1cc(N)c(Cl)cc1C(=O)OCCN1CCC(C(=O)NCCOCCOCCNC(=O)C2CCN(CCOC(=O)c3cc(Cl)c(N)cc3OC)CC2)CC1" ?
3

Kindly state the measured cAMP obtained for "COc1cc(N)c(Cl)cc1C(=O)OCCN1CCC(CNC(=O)CCCCCC(=O)NCC2CCN(CCOC(=O)c3cc(Cl)c(N)cc3OC)CC2)CC1" with 5-hydroxytryptamine receptor 4 (Homo sapiens, UniProt Q13639).
20
